# melting point annotations

- compound: "O=C(CN1CCN(Cc2ccc(F)c(Cl)c2)CC1)N1CCN(c2ccc(O)cc2)CC1"
  melting point: "165 to 168 °C"
- compound: "O=C(c1cc(F)ccc1C(F)(F)F)N1CCN(Cc2ccc(F)c(Cl)c2)CC1"
  melting point: "133 to 135 °C"
- compound: "CC(C(=O)N1CCN(c2ccc(O)cc2)CC1)N1CCN(Cc2ccc(F)c(Cl)c2)CC1 (stereo not shown)"
  melting point: "172 to 174 °C"
- compound: "O=C(c1cc2ccccc2s1)N1CCN(Cc2ccc(F)c(Cl)c2)CC1"
  melting point: "111 to 113 °C"

###

measure_name: melting point

- structure_notation: "O=C(c1ccc(Cl)cc1Cl)N1CCN(Cc2ccc(F)c(Cl)c2)CC1"
  measured_result: "121 to 124 °C"
- structure_notation: "Nn1c(SCc2ccc(F)c(Cl)c2)nnc1-c1ccccc1"
  measured_result: "164 to 166 °C"
- structure_notation: "Nn1c(SCc2ccc(F)cc2Cl)nnc1-c1ccncc1"
  measured_result: "171 to 172 °C"
- structure_notation: "Nn1c(SCc2ccc(F)c(Cl)c2)nnc1-c1ccncc1"
  measured_result: "164 to 165 °C"
- structure_notation: "c1ccc(SCSc2ccccc2)cc1"
  measured_result: "34 to 35 °C"

src = paper PMC10177926
